ASSAY_TARGET: CTLA4 (human)
Sequence (chain, as listed by the source): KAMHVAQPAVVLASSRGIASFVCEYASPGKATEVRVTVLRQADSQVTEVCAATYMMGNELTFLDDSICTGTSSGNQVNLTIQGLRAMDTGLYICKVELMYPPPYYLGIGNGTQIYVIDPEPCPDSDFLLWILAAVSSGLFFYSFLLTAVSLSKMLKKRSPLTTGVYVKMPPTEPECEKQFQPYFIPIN
METHOD_DESCRIPTION: flow cytometry, CHO cells stably expressing CTLA4
PROPERTY_MEASURED: Fold change to WT CD80 (fold)

Below, each entry is followed by its recorded Fold change to WT CD80 result.
CD80 variant Q27H/Q33L/E35D/M47V/N55D/L85Q/K89N IgV-Fc (Fc fusion) VIHVTKEVKEVATLSCGHNVSVEELAHTRIYWLKDKKMVLTMMSGDVNIWPEYKDRTIFDITNNLSIVILALRPSDEGTYECVVQKYENDAFKREHLAEVT    0.31
CD80 variant E35D/D46E/M47V/L97Q IgV-Fc (Fc fusion) VIHVTKEVKEVATLSCGHNVSVEELAQTRIYWQKDKKMVLTMMSGEVNIWPEYKNRTIFDITNNLSIVILALRPSDEGTYECVVLKYEKDAFKREHQAEVT    1.71
CD80 variant A26E/Q33L/E35D/M47L IgV-Fc (Fc fusion) VIHVTKEVKEVATLSCGHNVSVEELEQTRIYWLKDKKMVLTMMSGDLNIWPEYKNRTIFDITNNLSIVILALRPSDEGTYECVVLKYEKDAFKREHLAEVT    0.01
CD80 variant Q33L/E35D/T41S/M47V IgV-Fc (Fc fusion) VIHVTKEVKEVATLSCGHNVSVEELAQTRIYWLKDKKMVLSMMSGDVNIWPEYKNRTIFDITNNLSIVILALRPSDEGTYECVVLKYEKDAFKREHLAEVT    0.08
CD80 variant Q33L/E35D/M47L/V68M/L85Q/E88D IgV-Fc (Fc fusion) VIHVTKEVKEVATLSCGHNVSVEELAQTRIYWLKDKKMVLTMMSGDLNIWPEYKNRTIFDITNNLSIMILALRPSDEGTYECVVQKYDKDAFKREHLAEVT    0.02
CD80 variant Q33L/E35D/M47I IgV-Fc (Fc fusion) VIHVTKEVKEVATLSCGHNVSVEELAQTRIYWLKDKKMVLTMMSGDINIWPEYKNRTIFDITNNLSIVILALRPSDEGTYECVVLKYEKDAFKREHLAEVT    0.09

[P] CD80 variant E7D/E35D/M47I/L97Q IgV-Fc (Fc fusion) VIHVTKDVKEVATLSCGHNVSVEELAQTRIYWQKDKKMVLTMMSGDINIWPEYKNRTIFDITNNLSIVILALRPSDEGTYECVVLKYEKDAFKREHQAEVT
[Q] CD80 variant V22A/E35D/V68E/A71D IgV-Fc (Fc fusion) VIHVTKEVKEVATLSCGHNVSAEELAQTRIYWQKDKKMVLTMMSGDMNIWPEYKNRTIFDITNNLSIEILDLRPSDEGTYECVVLKYEKDAFKREHLAEVT
Exercise: Record comparison, field Fold change to WT CD80: mark the lower of P and Q . Mark your answer with the label of the selected entry.
Solution: P
(P: 1.52 fold, Q: 2.45 fold)
